I'd be grateful if you could share measured LCPS for these entries.
Target: T1, RGMc antigen: amino acids 33-391 of RGMc followed by human Fc (human, UniProt Q6ZVN8 33-391)
T1 construct: also called RGMc-huFc; RGMc-Fc; not shown: human Fc
T1 sequence: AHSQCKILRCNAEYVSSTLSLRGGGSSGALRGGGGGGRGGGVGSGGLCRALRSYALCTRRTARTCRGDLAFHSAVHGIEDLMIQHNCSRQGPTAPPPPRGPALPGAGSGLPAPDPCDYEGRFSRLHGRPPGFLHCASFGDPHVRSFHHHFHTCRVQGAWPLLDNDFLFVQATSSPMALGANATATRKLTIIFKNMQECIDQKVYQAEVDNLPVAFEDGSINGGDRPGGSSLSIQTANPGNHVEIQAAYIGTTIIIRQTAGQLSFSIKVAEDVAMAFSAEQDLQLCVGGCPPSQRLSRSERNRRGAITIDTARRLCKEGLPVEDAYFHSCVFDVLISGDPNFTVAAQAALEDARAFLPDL
Assay: chemiluminescence immunoassay: supernatant mAb captured on sheep anti-mouse IgG Fc, RGMc-huFc at 200 ng/mL, acridinium-labeled goat anti-RGMc detection
// units = LCPS; emit number, no label

QUERY: Tell me LCPS reported for 1A-2258-107 (antibody, V domains shown) VH: EVQLVESGGGLVKPGGSLKLSCAASGFTFSDYFMFWVRQTPEKRLEWVATISDGGSYTYYSDSVKGRFTISRDNAKNNLFLQMSSLKSEDTAMYYCARDKYGDYDAMDYWGQGTSVTVSS VL: DVVLTQSPASLAVSLGQRATISCKASQSVDYDSDSYMNWYQQKPGQPPKLLIYAASNLESGIPARFSGGGSGTDFTLNIHPVEEEDAATYYCQQSNEDPPTFGGGTKLEIKR
RESULT: 2640

QUERY: Name the recorded LCPS of the item 1A-2151-163 (antibody, V domains shown) VH: EVQLQQSGPELLKPGASVKISCKASGYSFTDNTIHWVKQSQRKSLEWIGGISPRYGDIRYNVQFKDKATLTVDKSSSTAYMELRSLTSEDSAVYYCTRWDDGYYEDYAMDYWGQGTSVTVSS VL: DILLTQSPAILSVSPGERVSFSCRASQSIGTSLHWYQQRRNGSPRLLIKYASESISGIPSRFSGSGSGTDFTLSINTVESEDIADYYCQQSNSWPYTFGGGTKLEIKR in your answer.
RESULT: 4390

QUERY: Quick one: give measured LCPS for 1B-3363-715 (antibody, V domains shown, The parent line 1B-3363 and subclone 1B-3363-502 used in the assays are treated here as the same antibody; also called 1B-3363-502) VH: DVQLQESGPDLVKPSQSLSLTCTVTGYSITSGYSWHWIRQFPGNKLEWMGYIHYSGNTDYNPSLKSRISFTRDTSKNQFFLQLNSVTTEDTATYFCAIGTGPWGQGTTLTVSS VL: DVLMTQTPLSLPVSLGDQASISCRSSQNIVHSNGHTYLEWYLQKPGQSPKLLIYKVSNRFSGVPDRFSGSGSGTDFTLKISRVEAEDLGVYYCFQGSHVPWTFGGGTKLEIKR
RESULT: 5260

QUERY: Given the binder 1A-2860-475 (antibody, V domains shown, The parent line 1A-2860 and subclone 1A-2860-177 used in the assays are treated here as the same antibody; also called 1A-2860-177) VH: DVLLQESGPDLVKPSQSLSLTCTVTGYSISSGYSWHWIRQFPGNKLEWMAYIHYTGNTNYNPSLKSRISITRDTSKNQFFLHLNSVTTEDTATYYCALFGLSGFWGQGTLVTVSA VL: DVLMTQTPLSLPVSLGDQASISCRSSQTIVHSNGNTYLDWYLQKPGQSPKVLIYKVSNRFSGVPDRFSGSGSGTDFTLKISRVEAEDLGVYFCLQGSHVPWTFGGGTQLEIKR , write its reported LCPS.
RESULT: 6610
